B1: TPR 5TU (parent)
chain: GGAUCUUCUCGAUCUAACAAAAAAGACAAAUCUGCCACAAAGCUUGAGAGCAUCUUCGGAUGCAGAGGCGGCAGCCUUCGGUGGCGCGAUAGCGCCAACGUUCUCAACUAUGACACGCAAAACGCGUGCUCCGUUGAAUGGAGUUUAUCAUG

# Variants of: B1
# method.notes: polymerase ribozyme fitness, log enrichment relative to wild type (log ratio); higher = more active; in vitro selection for triplet polymerase activity
This sample holds only a part of the variants without activity.
outcome.measure: polymerase ribozyme fitness (log ratio)
One number for each entry.

# residue.change, polymerase ribozyme fitness (log ratio)
measured = [
    ("A17G C36U C93G", -3.8),
    ("C35G G68C C125A", -4.18),
    ("U53A G81A C95U A120C U144G", -1.05),
    ("C85U A142G", -1.38),
    ("C54G C96G G126A", -2.33),
]

Could you tell me polymerase ribozyme fitness (log ratio) for each of these variants? They are listed below.
1. C5G C38A G58U
2. U56G C93U A107G A120U
3. A40C C54U U56A G126U
4. A22U U56G
5. A24G G59C

1. -1.06
2. -4.12
3. -0.0276
4. -0.902
5. -3.7

# lookup: polymerase ribozyme fitness (log ratio) of G126U C132U
-0.717
